Target System: Serine/threonine-protein kinase/endoribonuclease IRE1 (Homo sapiens, UniProt O75460)
Sequence (O75460 whole entry, the tested form may be a part): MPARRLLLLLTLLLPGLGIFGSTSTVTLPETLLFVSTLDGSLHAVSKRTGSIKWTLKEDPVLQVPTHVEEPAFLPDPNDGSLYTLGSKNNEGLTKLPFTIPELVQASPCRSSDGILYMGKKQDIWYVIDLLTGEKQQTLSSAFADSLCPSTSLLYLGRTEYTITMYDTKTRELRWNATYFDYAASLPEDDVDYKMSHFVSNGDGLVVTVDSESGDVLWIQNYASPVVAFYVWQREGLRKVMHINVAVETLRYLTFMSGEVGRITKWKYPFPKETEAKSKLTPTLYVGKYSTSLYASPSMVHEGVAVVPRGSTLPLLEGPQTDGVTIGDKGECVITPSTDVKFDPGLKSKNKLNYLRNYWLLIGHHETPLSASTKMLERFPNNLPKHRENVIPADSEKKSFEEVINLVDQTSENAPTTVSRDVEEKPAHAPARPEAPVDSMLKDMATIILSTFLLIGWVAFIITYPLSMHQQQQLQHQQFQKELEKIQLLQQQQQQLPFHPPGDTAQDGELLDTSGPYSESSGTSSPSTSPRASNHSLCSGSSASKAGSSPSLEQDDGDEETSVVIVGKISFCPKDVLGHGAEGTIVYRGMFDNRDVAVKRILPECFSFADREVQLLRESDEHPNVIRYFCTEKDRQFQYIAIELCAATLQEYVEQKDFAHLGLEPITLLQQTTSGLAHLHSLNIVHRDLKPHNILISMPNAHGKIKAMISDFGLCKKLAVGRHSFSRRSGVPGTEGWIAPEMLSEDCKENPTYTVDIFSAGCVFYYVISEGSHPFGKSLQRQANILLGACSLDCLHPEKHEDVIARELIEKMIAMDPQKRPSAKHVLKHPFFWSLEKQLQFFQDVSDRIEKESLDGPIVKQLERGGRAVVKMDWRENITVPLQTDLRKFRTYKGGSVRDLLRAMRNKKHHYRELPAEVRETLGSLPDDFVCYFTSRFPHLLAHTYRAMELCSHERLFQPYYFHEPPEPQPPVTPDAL
Assay Remarks: Inhibition of IRE1alpha (unknown origin) assessed as XBP-1 slicing luciferase activity incubated for 1 hr followed by stimulation with thapsigargin measured after 5 hrs by luciferase reporter gene assay
Measurement Label: log10 IC50 (log10 of the value in µM)
Lab note - IC50 converted to log10 from values in µM.

Known results for compounds:
INSERT INTO measurements (smiles_repr, val) VALUES
  ('Cc1cc(C(=O)Nc2c(Cl)ccc(NS(=O)(=O)c3cc(F)ccc3F)c2F)c2ncnc(NCCN)c2c1', 1.49),
  ('Cc1nn(C)cc1-c1cc(C(=O)Nc2c(Cl)ccc(NS(=O)(=O)c3ccccc3Cl)c2F)c2ncnc(N)c2c1', -1.32),
  ('Cc1cc(C(=O)Nc2c(Cl)ccc(NS(=O)(=O)c3cc(F)ccc3F)c2F)c2ncnc(N)c2c1', 0.04),
  ('Cc1nn(C)cc1-c1cc(C(=O)Nc2c(Cl)ccc(NS(=O)(=O)c3ccccc3F)c2F)c2ncnc(N)c2c1', -1.36),
  ('Cc1cc(C(=O)Nc2c(Cl)ccc(NS(=O)(=O)c3cc(F)ccc3F)c2F)c2ncnc(N[C@@H]3CCCNC3)c2c1', 1.28);

Given the compound Cc1cc(C(=O)Nc2c(Cl)ccc(NS(=O)(=O)c3cc(F)ccc3F)c2F)c2ncnc(N[C@H]3CC[C@H](N)CC3)c2c1 , what is its reported log10 IC50?
1.28

---

Target System: Serine/threonine-protein kinase/endoribonuclease IRE1 (Homo sapiens)
Assay Remarks: Competitive inhibition of IRE1alpha LKR domain (Q470 to L997 residues) (unknown origin) expressed in Sf9 insect cells using mini-XBP-1 stem-loop RNA as substrate and measured every 2 mins for 50 mins by FRET assay
The entries below come with measured IC50 values attached.
The reply should contain only the number, in nM.

INSERT INTO results (smiles_repr, val) VALUES
  ('Nc1ncnc2c(C(=O)Nc3c(Cl)ccc(NS(=O)(=O)N4CCCC4)c3F)cccc12', 200),
  ('Cc1nn(C)cc1-c1cc(C(=O)Nc2c(Cl)ccc(NS(=O)(=O)c3ccccc3F)c2F)c2ncnc(N)c2c1', 40),
  ('Cc1cc(C(=O)Nc2c(Cl)ccc(NS(=O)(=O)c3cc(F)ccc3F)c2F)c2ncnc(N)c2c1', 31),
  ('Cc1cc(C(=O)Nc2c(Cl)ccc(NS(=O)(=O)c3cc(F)ccc3F)c2F)c2ncnc(N[C@@H]3CCCNC3)c2c1', 3500),
  ('N[C@H]1CC[C@H](Nc2ncnc3c(C(=O)Nc4c(Cl)ccc(NS(=O)(=O)Cc5ccccc5)c4F)csc23)CC1', 30);

Given the compound Cc1cc(C(=O)Nc2c(Cl)ccc(NS(=O)(=O)c3cc(F)ccc3F)c2F)c2ncnc(N[C@H]3CC[C@H](N)CC3)c2c1 , what is its reported IC50?
700

---

Form: system (Serine/threonine-protein kinase B-raf (Homo sapiens, UniProt P15056, V600E)), quantity (Ki), values below.
The reply should contain only the number, in nM.

INSERT INTO measurements (smiles_repr, measurement_label, val) VALUES
  ('Cc1cc(C(=O)Nc2c(Cl)ccc(NS(=O)(=O)c3cc(F)ccc3F)c2F)c2ncnc(N[C@H]3CC[C@H](N)CC3)c2c1', 'Ki', 340),
  ('Nc1ncnc2c(C(=O)Nc3c(Cl)ccc(NS(=O)(=O)N4CCCC4)c3F)cccc12', 'Ki', 2.3),
  ('Cc1nn(C)cc1-c1cc(C(=O)Nc2c(Cl)ccc(NS(=O)(=O)c3ccccc3Cl)c2F)c2ncnc(N)c2c1', 'Ki', 0.25),
  ('Cc1cc(C(=O)Nc2c(Cl)ccc(NS(=O)(=O)c3cc(F)ccc3F)c2F)c2ncnc(N[C@@H]3CCCNC3)c2c1', 'Ki', 70),
  ('N[C@H]1CC[C@H](Nc2ncnc3c(C(=O)Nc4c(Cl)ccc(NS(=O)(=O)Cc5ccccc5)c4F)csc23)CC1', 'Ki', 55);

Query the reported Ki for Serine/threonine-protein kinase B-raf (Homo sapiens, UniProt P15056, V600E); item: Cc1cc(C(=O)Nc2c(Cl)ccc(NS(=O)(=O)c3cc(F)ccc3F)c2F)c2ncnc(NCCN)c2c1
5.2

Okay, and N[C@H]1CC[C@H](Nc2ncnc3c(C(=O)Nc4c(Cl)ccc(NS(=O)(=O)c5cc(F)ccc5F)c4F)csc23)CC1 ?
1.4

---

Target System: Serine/threonine-protein kinase/endoribonuclease IRE1 (Homo sapiens, UniProt O75460)
Assay Remarks: Inhibition of IRE1alpha (unknown origin) assessed as XBP-1 slicing luciferase activity incubated for 1 hr followed by stimulation with thapsigargin measured after 5 hrs by luciferase reporter gene assay
Measurement Label: pIC50
Scale for pIC50: -log10 of concentration given in mol/L; no unit attached.

Known results for molecules:
INSERT INTO measurements (smiles_repr, measurement_label, val) VALUES
  ('Cc1cc(NS(=O)(=O)c2ccccc2Cl)c2ccccc2c1Oc1ncccc1-c1ccnc(N[C@H]2CC[C@H](N)CC2)n1', 'pIC50', 7.24),
  ('N[C@H]1CC[C@H](Nc2ncnc3c(C(=O)Nc4c(Cl)ccc(NS(=O)(=O)c5ccccc5Cl)c4F)csc23)CC1', 'pIC50', 6.92),
  ('Nc1ncnc2c(C(=O)Nc3c(Cl)ccc(NS(=O)(=O)c4cc(F)ccc4F)c3F)csc12', 'pIC50', 5.28);

Given the molecule N[C@H]1CC[C@H](Nc2ncnc3c(C(=O)Nc4c(Cl)ccc(NS(=O)(=O)Cc5ccccc5)c4F)csc23)CC1 , what is its reported pIC50?
6.41

Okay, and Nc1ncnc2c(C(=O)Nc3c(Cl)ccc(NS(=O)(=O)N4CCCC4)c3F)cccc12 ?
5.25

Okay, and Cc1cc(C(=O)Nc2c(Cl)ccc(NS(=O)(=O)c3cc(F)ccc3F)c2F)c2ncnc(N[C@H]3CCCNC3)c2c1 ?
5.00

Okay, and N[C@H]1CC[C@H](Nc2ncnc3c(C(=O)Nc4c(Cl)ccc(NS(=O)(=O)c5cc(F)ccc5F)c4F)csc23)CC1 ?
6.49

Okay, and Nc1ncnc2c(C(=O)Nc3c(Cl)ccc(NS(=O)(=O)c4cc(F)ccc4F)c3F)cc(-c3cccnc3)cc12 ?
5.31

---

Target System: Serine/threonine-protein kinase/endoribonuclease IRE1 (Homo sapiens)
Assay Remarks: Competitive inhibition of IRE1alpha LKR domain (Q470 to L997 residues) (unknown origin) expressed in Sf9 insect cells using mini-XBP-1 stem-loop RNA as substrate and measured every 2 mins for 50 mins by FRET assay
Measurement Label: IC50 (nM)
The reply should contain only the number, in nM.

Known results for compounds:
INSERT INTO results (smiles_repr, target_system, measurement_label, unit_spec, val) VALUES
  ('N[C@H]1CC[C@H](Nc2ncnc3c(C(=O)Nc4c(Cl)ccc(NS(=O)(=O)c5cc(F)ccc5F)c4F)csc23)CC1', 'Serine/threonine-protein kinase/endoribonuclease IRE1 (Homo sapiens)', 'IC50', 'nM', 24),
  ('Nc1ncnc2c(C(=O)Nc3c(Cl)ccc(NS(=O)(=O)c4cc(F)ccc4F)c3F)cc(-c3cccnc3)cc12', 'Serine/threonine-protein kinase/endoribonuclease IRE1 (Homo sapiens)', 'IC50', 'nM', 47),
  ('Nc1ncnc2c(C(=O)Nc3c(Cl)ccc(NS(=O)(=O)c4cc(F)ccc4F)c3F)csc12', 'Serine/threonine-protein kinase/endoribonuclease IRE1 (Homo sapiens)', 'IC50', 'nM', 67),
  ('Cc1cc(C(=O)Nc2c(Cl)ccc(NS(=O)(=O)c3cc(F)ccc3F)c2F)c2ncnc(N[C@H]3CCCNC3)c2c1', 'Serine/threonine-protein kinase/endoribonuclease IRE1 (Homo sapiens)', 'IC50', 'nM', 670),
  ('Cc1cc(C(=O)Nc2c(Cl)ccc(NS(=O)(=O)c3cc(F)ccc3F)c2F)c2ncnc(NCCN)c2c1', 'Serine/threonine-protein kinase/endoribonuclease IRE1 (Homo sapiens)', 'IC50', 'nM', 920);

Given the compound N[C@H]1CC[C@H](Nc2ncnc3c(C(=O)Nc4c(Cl)ccc(NS(=O)(=O)c5ccccc5Cl)c4F)csc23)CC1 , what is its reported IC50?
22

Okay, and Cc1nn(C)cc1-c1cc(C(=O)Nc2c(Cl)ccc(NS(=O)(=O)c3ccccc3Cl)c2F)c2ncnc(N)c2c1 ?
64

Okay, and Cc1cc(NS(=O)(=O)c2ccccc2Cl)c2ccccc2c1Oc1ncccc1-c1ccnc(N[C@H]2CC[C@H](N)CC2)n1 ?
4.2

---

Target System: hERG (KCNH2) (Homo sapiens, UniProt Q12809)
Sequence (Q12809 whole entry): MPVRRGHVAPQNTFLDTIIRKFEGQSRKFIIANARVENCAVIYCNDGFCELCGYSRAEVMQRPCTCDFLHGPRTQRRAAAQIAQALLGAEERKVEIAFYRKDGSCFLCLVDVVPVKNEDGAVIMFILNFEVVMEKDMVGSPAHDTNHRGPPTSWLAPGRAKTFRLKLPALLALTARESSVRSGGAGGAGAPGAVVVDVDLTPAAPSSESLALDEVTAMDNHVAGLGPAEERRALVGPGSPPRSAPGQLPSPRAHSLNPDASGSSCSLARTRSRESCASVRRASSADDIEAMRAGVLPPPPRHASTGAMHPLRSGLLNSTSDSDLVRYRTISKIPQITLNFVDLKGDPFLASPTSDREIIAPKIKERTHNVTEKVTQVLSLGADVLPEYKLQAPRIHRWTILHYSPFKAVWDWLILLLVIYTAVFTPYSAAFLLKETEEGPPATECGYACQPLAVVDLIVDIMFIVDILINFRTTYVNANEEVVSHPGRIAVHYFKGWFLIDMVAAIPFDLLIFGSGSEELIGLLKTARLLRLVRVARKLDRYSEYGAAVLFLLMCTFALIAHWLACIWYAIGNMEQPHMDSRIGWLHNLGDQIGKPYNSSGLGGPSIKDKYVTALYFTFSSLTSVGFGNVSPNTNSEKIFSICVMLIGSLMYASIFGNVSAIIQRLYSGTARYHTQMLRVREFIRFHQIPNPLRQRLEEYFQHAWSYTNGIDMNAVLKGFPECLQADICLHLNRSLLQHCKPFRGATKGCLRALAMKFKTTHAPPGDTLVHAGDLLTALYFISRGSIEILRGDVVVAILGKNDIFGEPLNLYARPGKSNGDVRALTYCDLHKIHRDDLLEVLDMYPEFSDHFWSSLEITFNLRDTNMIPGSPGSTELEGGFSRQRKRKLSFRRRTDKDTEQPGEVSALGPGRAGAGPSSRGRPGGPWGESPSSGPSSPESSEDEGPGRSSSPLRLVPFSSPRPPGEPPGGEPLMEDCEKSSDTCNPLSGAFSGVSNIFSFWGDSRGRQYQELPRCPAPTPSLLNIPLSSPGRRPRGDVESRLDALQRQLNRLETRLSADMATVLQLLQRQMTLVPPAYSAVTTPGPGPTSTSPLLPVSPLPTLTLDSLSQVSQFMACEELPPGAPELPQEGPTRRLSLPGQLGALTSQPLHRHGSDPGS
Assay Remarks: Inhibition of human ERG at 10 uM relative to control
Measurement Label: inhibition at 10 µM (%)
The reply should contain only the number, in %.

Given the molecule N[C@H]1CC[C@H](Nc2ncnc3c(C(=O)Nc4c(Cl)ccc(NS(=O)(=O)c5ccccc5Cl)c4F)csc23)CC1 , what is its reported inhibition at 10 µM?
6.4
